For reference, IC50 measured on Nitric oxide synthase 1 (Homo sapiens, UniProt P29475):

- smilesNotation: "NC1=Nc2c(F)cccc2[C@H]2CCC[C@@]12F"
  IC50 [µM]: 0.59
- smilesNotation: "NC1=Nc2ccccc2[C@H]2CCC[C@@]12F"
  IC50 [µM]: 0.1
- smilesNotation: "CNCCc1ccc2c(c1)N=C(N)[C@]1(F)CCC[C@H]21"
  IC50 [µM]: 0.39

====

Target: Nitric oxide synthase 3 (Homo sapiens, UniProt P29474)
Sequence (P29474 whole entry): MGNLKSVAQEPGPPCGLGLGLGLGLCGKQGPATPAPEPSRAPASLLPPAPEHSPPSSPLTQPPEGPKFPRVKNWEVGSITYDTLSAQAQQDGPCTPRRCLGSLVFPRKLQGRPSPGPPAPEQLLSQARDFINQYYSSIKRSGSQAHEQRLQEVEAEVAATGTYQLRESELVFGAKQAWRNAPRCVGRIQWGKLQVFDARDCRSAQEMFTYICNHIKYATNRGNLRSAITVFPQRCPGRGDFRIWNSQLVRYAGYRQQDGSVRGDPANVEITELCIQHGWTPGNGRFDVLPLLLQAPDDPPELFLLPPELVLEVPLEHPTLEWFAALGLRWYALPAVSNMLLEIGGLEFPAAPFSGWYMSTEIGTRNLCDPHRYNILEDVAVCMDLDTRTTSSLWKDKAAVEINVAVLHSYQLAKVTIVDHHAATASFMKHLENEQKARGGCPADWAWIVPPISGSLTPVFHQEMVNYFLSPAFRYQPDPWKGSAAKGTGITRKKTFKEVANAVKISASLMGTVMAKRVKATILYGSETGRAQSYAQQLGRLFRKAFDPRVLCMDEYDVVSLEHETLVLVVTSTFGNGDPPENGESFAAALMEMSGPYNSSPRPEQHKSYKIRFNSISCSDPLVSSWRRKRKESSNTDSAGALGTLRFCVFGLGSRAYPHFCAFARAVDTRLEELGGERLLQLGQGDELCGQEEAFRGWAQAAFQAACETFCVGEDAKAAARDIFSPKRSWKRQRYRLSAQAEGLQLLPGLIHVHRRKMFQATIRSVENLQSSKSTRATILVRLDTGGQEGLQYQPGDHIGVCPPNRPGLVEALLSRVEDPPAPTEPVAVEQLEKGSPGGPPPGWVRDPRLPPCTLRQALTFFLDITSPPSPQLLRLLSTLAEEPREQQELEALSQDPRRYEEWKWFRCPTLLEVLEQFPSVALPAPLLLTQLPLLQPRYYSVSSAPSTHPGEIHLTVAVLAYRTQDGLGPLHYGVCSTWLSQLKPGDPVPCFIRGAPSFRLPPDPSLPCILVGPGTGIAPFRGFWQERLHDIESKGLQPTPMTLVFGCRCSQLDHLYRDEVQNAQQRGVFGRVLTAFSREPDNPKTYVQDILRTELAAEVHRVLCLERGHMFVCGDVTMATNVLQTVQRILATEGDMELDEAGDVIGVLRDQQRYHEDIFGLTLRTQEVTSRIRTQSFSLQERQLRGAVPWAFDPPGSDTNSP
The entries below come with measured IC50 values attached.
measuredParameter: IC50 (µM)

- smilesNotation: "NC1=Nc2ccc(Cl)cc2[C@H]2CCC[C@@]12F"
  measuredParameter: "IC50"
  quantitativeResult: 14
- smilesNotation: "NC1=Nc2ccccc2[C@H]2CCC[C@@]12F"
  measuredParameter: "IC50"
  quantitativeResult: 2.7
- smilesNotation: "NC1=Nc2c(F)cc(Cl)cc2[C@H]2CCC[C@@H]12"
  measuredParameter: "IC50"
  quantitativeResult: 14
- smilesNotation: "CNCCc1ccc2c(c1)N=C(N)[C@]1(F)CCC[C@H]21"
  measuredParameter: "IC50"
  quantitativeResult: 79
